From: patent US10836794B2

Assay: Stability of liquid pharmaceutical forms (peptide 0.2 %, benzalkonium chloride 0.01 %, water) during storage; single and total impurities
Format: physicochemical
Details: stored for 3 months at +4° C.
Excerpt: Investigations of the Stability of Pharmaceutical Forms Containing Peptides Having the Property of Stimulating the Genital and Sexual Functions This experiment investigated the stability of compositions containing peptides according to the invention. […]
Non-standard residues stand in square brackets, D forms with d. No end group written: not given here. Hyp = O=C(O)[C@@H]1C[C@@H](O)CN1
So I've got a bunch of substances here, and I need their Total impurities values.
Report the figure in % without appending any unit label.

Problem: Dear colleague, I am looking for the recorded Total impurities of the following substance: Thr-Lys-Hyp-Arg-Hyp-Gly-Hyp (TK[Hyp]R[Hyp]G[Hyp]) [peptide according to the invention containing hydroxyproline]
Solution: 0.12

Problem: GET /values?readout=Total impurities&item= Thr-Lys-Pro-Arg-Pro-Phe (TKPRPF; not fully specified; printed as Thr-Lys-Pro-Arg-Pro-Phe) [hexapeptide described in RU2507212, comparison peptide, reference compound]
Solution: 0.18

Problem: I would be grateful if you could share the reported Total impurities for Thr-Lys-Pro-Arg-Pro-Gly-Pro (TKPRPGP; not fully specified; printed as Thr-Lys-Pro-Arg-Pro-Gly-Pro) [heptopeptide “Selank”, a synthetic analogue of the endogenous peptide tuftsin, reference compound] .
Solution: 0.2

Problem: Which measured Total impurities value corresponds to Thr-Lys-Pro-Arg-Pro (TKPRP; not fully specified; printed as Thr-Lys-Pro-Arg-Pro) [pentapeptide described in RU2507212, comparison peptide, reference compound] ?
Solution: 0.93

Problem: // returns reported Total impurities for input Thr-Lys-Hyp-Arg-Hyp (TK[Hyp]R[Hyp]) [pentapeptide of the invention containing hydroxyproline]
Solution: 0.09

Problem: # get_value(readout='Total impurities', item= Thr-Lys-Hyp-Arg-Hyp-Phe (TK[Hyp]R[Hyp]F) [hexapeptide of the invention containing hydroxyproline] )
Solution: 0.15
